Below, each entry is listed alongside its reported normalized RNA/DNA level without ligand (log10).
B1: library; a variant is named by its letters at N, in order (parent)
chain: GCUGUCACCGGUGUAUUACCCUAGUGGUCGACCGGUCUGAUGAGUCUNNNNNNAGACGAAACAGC

Variants of: B1
test: normalized RNA/DNA level without ligand (relative to sTRSVctl = 100) (log10 (% of sTRSVctl)); ligand: hypoxanthine (xanthine aptamer); higher = less ribozyme self-cleavage, higher mRNA level
condition.details: HEK293T, reporter: mCherry (pCS4076), ligand present: no
readout: normalized RNA/DNA level without ligand (log10)

In [3]: df
Out[3]:
                          construct_sequence  result
 0  GCUGUCACCGGUGUAUUACCCUAGUGGUCGACCGGUCUGAUGAGUCUCUUAUGAGACGAAACAGC [CUUAUG]    1.91
 1  GCUGUCACCGGUGUAUUACCCUAGUGGUCGACCGGUCUGAUGAGUCUGGACCAAGACGAAACAGC [GGACCA]    1.88
 2  GCUGUCACCGGUGUAUUACCCUAGUGGUCGACCGGUCUGAUGAGUCUACGACGAGACGAAACAGC [ACGACG]    1.26
 3  GCUGUCACCGGUGUAUUACCCUAGUGGUCGACCGGUCUGAUGAGUCUCCGAUGAGACGAAACAGC [CCGAUG]    1.42
 4  GCUGUCACCGGUGUAUUACCCUAGUGGUCGACCGGUCUGAUGAGUCUAACUUAAGACGAAACAGC [AACUUA]    1.86
 5  GCUGUCACCGGUGUAUUACCCUAGUGGUCGACCGGUCUGAUGAGUCUGUGCACAGACGAAACAGC [GUGCAC]    1.67
 6  GCUGUCACCGGUGUAUUACCCUAGUGGUCGACCGGUCUGAUGAGUCUGAAGGCAGACGAAACAGC [GAAGGC]    1.52
 7  GCUGUCACCGGUGUAUUACCCUAGUGGUCGACCGGUCUGAUGAGUCUCCCACCAGACGAAACAGC [CCCACC]    1.96
 8  GCUGUCACCGGUGUAUUACCCUAGUGGUCGACCGGUCUGAUGAGUCUUCAGCAAGACGAAACAGC [UCAGCA]    1.88
 9  GCUGUCACCGGUGUAUUACCCUAGUGGUCGACCGGUCUGAUGAGUCUACCCAAAGACGAAACAGC [ACCCAA]     1.8
10  GCUGUCACCGGUGUAUUACCCUAGUGGUCGACCGGUCUGAUGAGUCUCUCUACAGACGAAACAGC [CUCUAC]    1.87
11  GCUGUCACCGGUGUAUUACCCUAGUGGUCGACCGGUCUGAUGAGUCUGUAACCAGACGAAACAGC [GUAACC]    1.88
12  GCUGUCACCGGUGUAUUACCCUAGUGGUCGACCGGUCUGAUGAGUCUGUGAGCAGACGAAACAGC [GUGAGC]    1.15
13  GCUGUCACCGGUGUAUUACCCUAGUGGUCGACCGGUCUGAUGAGUCUGCACAUAGACGAAACAGC [GCACAU]    1.76
14  GCUGUCACCGGUGUAUUACCCUAGUGGUCGACCGGUCUGAUGAGUCUCUCAUUAGACGAAACAGC [CUCAUU]    2.01
15  GCUGUCACCGGUGUAUUACCCUAGUGGUCGACCGGUCUGAUGAGUCUCUGCGAAGACGAAACAGC [CUGCGA]    1.82
16  GCUGUCACCGGUGUAUUACCCUAGUGGUCGACCGGUCUGAUGAGUCUUCGGUUAGACGAAACAGC [UCGGUU]    1.61
17  GCUGUCACCGGUGUAUUACCCUAGUGGUCGACCGGUCUGAUGAGUCUACACAGAGACGAAACAGC [ACACAG]    1.42
18  GCUGUCACCGGUGUAUUACCCUAGUGGUCGACCGGUCUGAUGAGUCUGUUACGAGACGAAACAGC [GUUACG]    1.59
19  GCUGUCACCGGUGUAUUACCCUAGUGGUCGACCGGUCUGAUGAGUCUUCCUUAAGACGAAACAGC [UCCUUA]    1.87
20  GCUGUCACCGGUGUAUUACCCUAGUGGUCGACCGGUCUGAUGAGUCUACCGCCAGACGAAACAGC [ACCGCC]    1.88
21  GCUGUCACCGGUGUAUUACCCUAGUGGUCGACCGGUCUGAUGAGUCUUAUCGUAGACGAAACAGC [UAUCGU]     1.7
22  GCUGUCACCGGUGUAUUACCCUAGUGGUCGACCGGUCUGAUGAGUCUGGGGGCAGACGAAACAGC [GGGGGC]    1.51
23  GCUGUCACCGGUGUAUUACCCUAGUGGUCGACCGGUCUGAUGAGUCUCCACCAAGACGAAACAGC [CCACCA]    1.88
24  GCUGUCACCGGUGUAUUACCCUAGUGGUCGACCGGUCUGAUGAGUCUGGUGGAAGACGAAACAGC [GGUGGA]    1.71
25  GCUGUCACCGGUGUAUUACCCUAGUGGUCGACCGGUCUGAUGAGUCUCCCACGAGACGAAACAGC [CCCACG]    1.83
26  GCUGUCACCGGUGUAUUACCCUAGUGGUCGACCGGUCUGAUGAGUCUGCUCAUAGACGAAACAGC [GCUCAU]     1.8
27  GCUGUCACCGGUGUAUUACCCUAGUGGUCGACCGGUCUGAUGAGUCUAACAAGAGACGAAACAGC [AACAAG]    1.41
28  GCUGUCACCGGUGUAUUACCCUAGUGGUCGACCGGUCUGAUGAGUCUACACGGAGACGAAACAGC [ACACGG]    1.32
29  GCUGUCACCGGUGUAUUACCCUAGUGGUCGACCGGUCUGAUGAGUCUCUCGGUAGACGAAACAGC [CUCGGU]    1.85
30  GCUGUCACCGGUGUAUUACCCUAGUGGUCGACCGGUCUGAUGAGUCUGUGUAAAGACGAAACAGC [GUGUAA]    1.67
31  GCUGUCACCGGUGUAUUACCCUAGUGGUCGACCGGUCUGAUGAGUCUACGGGCAGACGAAACAGC [ACGGGC]    1.79
32  GCUGUCACCGGUGUAUUACCCUAGUGGUCGACCGGUCUGAUGAGUCUGGGUGUAGACGAAACAGC [GGGUGU]    1.81
33  GCUGUCACCGGUGUAUUACCCUAGUGGUCGACCGGUCUGAUGAGUCUAUUAAGAGACGAAACAGC [AUUAAG]    1.48
34  GCUGUCACCGGUGUAUUACCCUAGUGGUCGACCGGUCUGAUGAGUCUAUAUUCAGACGAAACAGC [AUAUUC]    1.88
35  GCUGUCACCGGUGUAUUACCCUAGUGGUCGACCGGUCUGAUGAGUCUUCAAGUAGACGAAACAGC [UCAAGU]    1.63
36  GCUGUCACCGGUGUAUUACCCUAGUGGUCGACCGGUCUGAUGAGUCUGAUUAUAGACGAAACAGC [GAUUAU]    1.84
37  GCUGUCACCGGUGUAUUACCCUAGUGGUCGACCGGUCUGAUGAGUCUGGGCCUAGACGAAACAGC [GGGCCU]    2.01
38  GCUGUCACCGGUGUAUUACCCUAGUGGUCGACCGGUCUGAUGAGUCUCAAAUUAGACGAAACAGC [CAAAUU]    1.81
39  GCUGUCACCGGUGUAUUACCCUAGUGGUCGACCGGUCUGAUGAGUCUAAAUGUAGACGAAACAGC [AAAUGU]    1.63
40  GCUGUCACCGGUGUAUUACCCUAGUGGUCGACCGGUCUGAUGAGUCUUUAGUAAGACGAAACAGC [UUAGUA]    1.81
41  GCUGUCACCGGUGUAUUACCCUAGUGGUCGACCGGUCUGAUGAGUCUCCCGUCAGACGAAACAGC [CCCGUC]    2.02
42  GCUGUCACCGGUGUAUUACCCUAGUGGUCGACCGGUCUGAUGAGUCUGGCAUAAGACGAAACAGC [GGCAUA]    1.86
43  GCUGUCACCGGUGUAUUACCCUAGUGGUCGACCGGUCUGAUGAGUCUUACGAAAGACGAAACAGC [UACGAA]    1.69
44  GCUGUCACCGGUGUAUUACCCUAGUGGUCGACCGGUCUGAUGAGUCUCGACGUAGACGAAACAGC [CGACGU]    1.86
45  GCUGUCACCGGUGUAUUACCCUAGUGGUCGACCGGUCUGAUGAGUCUGGCUCUAGACGAAACAGC [GGCUCU]    1.99
